Origin of values: patent US9388189B2

- targetSystem: PI3Kδ (PI3Kd) (Homo sapiens (Human), UniProt O00329)
- Sequence (O00329 whole entry, canonical isoform): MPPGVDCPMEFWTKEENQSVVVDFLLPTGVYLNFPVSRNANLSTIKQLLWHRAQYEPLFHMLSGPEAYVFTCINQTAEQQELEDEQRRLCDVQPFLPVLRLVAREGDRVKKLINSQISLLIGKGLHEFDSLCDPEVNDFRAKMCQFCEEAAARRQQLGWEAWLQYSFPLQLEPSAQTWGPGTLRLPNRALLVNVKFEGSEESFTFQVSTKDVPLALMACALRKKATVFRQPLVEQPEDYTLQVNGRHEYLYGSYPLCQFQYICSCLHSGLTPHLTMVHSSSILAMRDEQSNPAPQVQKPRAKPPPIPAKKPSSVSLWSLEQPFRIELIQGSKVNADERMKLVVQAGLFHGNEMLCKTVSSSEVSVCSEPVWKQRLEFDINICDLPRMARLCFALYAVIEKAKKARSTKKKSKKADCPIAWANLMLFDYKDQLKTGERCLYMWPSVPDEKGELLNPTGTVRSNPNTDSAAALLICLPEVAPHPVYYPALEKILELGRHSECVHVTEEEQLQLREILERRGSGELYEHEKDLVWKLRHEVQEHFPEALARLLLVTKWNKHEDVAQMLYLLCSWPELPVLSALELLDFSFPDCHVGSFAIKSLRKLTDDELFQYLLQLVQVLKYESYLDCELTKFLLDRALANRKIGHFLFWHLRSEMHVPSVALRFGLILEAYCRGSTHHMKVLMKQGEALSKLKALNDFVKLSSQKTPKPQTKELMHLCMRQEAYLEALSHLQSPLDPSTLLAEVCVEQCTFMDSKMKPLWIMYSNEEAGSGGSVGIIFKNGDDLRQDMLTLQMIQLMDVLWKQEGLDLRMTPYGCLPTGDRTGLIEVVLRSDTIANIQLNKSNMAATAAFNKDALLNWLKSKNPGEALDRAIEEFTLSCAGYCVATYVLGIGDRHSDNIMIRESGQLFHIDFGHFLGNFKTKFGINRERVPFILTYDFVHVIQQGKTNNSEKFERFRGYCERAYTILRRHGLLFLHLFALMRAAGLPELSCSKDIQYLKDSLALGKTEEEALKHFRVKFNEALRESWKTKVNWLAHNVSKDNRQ
- Sequence (P27986 whole entry partner, canonical isoform): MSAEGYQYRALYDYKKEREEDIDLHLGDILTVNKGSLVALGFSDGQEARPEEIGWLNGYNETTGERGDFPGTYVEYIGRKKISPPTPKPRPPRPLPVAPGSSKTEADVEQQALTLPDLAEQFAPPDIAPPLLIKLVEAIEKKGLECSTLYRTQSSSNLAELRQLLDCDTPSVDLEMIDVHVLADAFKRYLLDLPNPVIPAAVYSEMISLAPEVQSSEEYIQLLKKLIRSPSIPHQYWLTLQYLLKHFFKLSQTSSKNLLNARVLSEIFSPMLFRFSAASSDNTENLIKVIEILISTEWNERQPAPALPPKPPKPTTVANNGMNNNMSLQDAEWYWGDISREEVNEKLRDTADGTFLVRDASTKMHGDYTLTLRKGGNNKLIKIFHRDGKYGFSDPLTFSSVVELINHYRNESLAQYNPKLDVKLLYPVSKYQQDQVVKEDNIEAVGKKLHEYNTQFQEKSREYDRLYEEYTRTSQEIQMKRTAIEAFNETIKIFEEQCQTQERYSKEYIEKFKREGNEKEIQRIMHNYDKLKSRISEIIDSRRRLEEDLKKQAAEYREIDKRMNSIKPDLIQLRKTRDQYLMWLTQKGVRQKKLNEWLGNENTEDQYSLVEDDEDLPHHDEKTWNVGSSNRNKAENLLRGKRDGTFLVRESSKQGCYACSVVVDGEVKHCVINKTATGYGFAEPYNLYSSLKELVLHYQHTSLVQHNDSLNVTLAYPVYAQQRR
- experimentNotes: PI3K HTRF enzymatic inhibition assay (cell-free), delta isoform
- condition: read-out: IC50 PI3Kd HTRF; recombinant PI3K delta, [ATP] 15 μM, [PIP2] 2 μM, 30 min preincubation
Listed here are molecules together with their documented pIC50.
The meaning of pIC50 here: minus log10 of the concentration in molar units.

Known results for molecules:
{"molecule": "COc1cc(C#N)cc(-c2c[nH]c3ncnc(N[C@@H](C)c4nn5ccc(C)c5c(=O)n4-c4ccccc4)c23)c1 [Example 147]", "pIC50": 9.40}
{"molecule": "CCNc1nnc(-c2c[nH]c3ncnc(N[C@@H](C)c4nn5ccc(C)c5c(=O)n4-c4ccccc4)c23)s1 [Example 120]", "pIC50": 9.40}
{"molecule": "Cc1ccn2nc([C@H](C)Nc3ncnc4[nH]cc(-c5cnn(CCCO)c5)c34)n(-c3ccccc3)c(=O)c12 [Example 140]", "pIC50": 9.70}
{"molecule": "Cc1ccn2nc([C@H](C)Nc3ncnc4[nH]cc(-c5cc(O)cc(F)c5)c34)n(-c3ccccc3)c(=O)c12 [Example 27]", "pIC50": 9.00}
{"molecule": "N#Cc1c(N)ncnc1N[C@@H](CCOCc1ccccc1)c1nn2ccc(C#N)c2c(=O)n1-c1cc(F)cc(F)c1 [Example 17]", "pIC50": 8.22}

Q: Lab request: please report pIC50 under test system PI3Kδ (PI3Kd) (Homo sapiens (Human), UniProt O00329) for C[C@H](Nc1ncnc(N)c1-c1cc(O)cc(F)c1)c1nn2cccc2c(=O)n1-c1ccccc1 [Example 7]
A: 7.96

Q: Short answer please: pIC50, PI3Kδ (PI3Kd) (Homo sapiens (Human), UniProt O00329), entry Cc1ccn2nc([C@H](C)Nc3ncnc4[nH]cc(-c5cccc6[nH]ncc56)c34)n(-c3ccccc3)c(=O)c12 [Example 52]
A: 9.00

###

A collection of compounds and their measured pIC50
- targetSystem: PI3Kδ (PI3Kd) (Homo sapiens (Human), UniProt O00329)
- experimentNotes: PI3K HTRF enzymatic inhibition assay (cell-free), delta isoform
- condition: read-out: IC50 PI3Kd HTRF; recombinant PI3K delta, [ATP] 15 μM, [PIP2] 2 μM, 30 min preincubation
Reminder that pIC50 is minus the log10 of a molar concentration.

{"cpdSmiles": "COc1ncc(-c2c(N)ncnc2N[C@@H](C)c2nn3ccc(C)c3c(=O)n2-c2ccccc2)cc1NS(=O)(=O)c1ccc(O)cc1", "targetSystem": "PI3Kδ (PI3Kd) (Homo sapiens (Human), UniProt O00329)", "pIC50": 9.70}
{"cpdSmiles": "Cc1ccn2nc([C@H](C)Nc3ncnc4[nH]cc(-c5ccn(Cc6ccccc6O)n5)c34)n(-c3ccccc3)c(=O)c12", "targetSystem": "PI3Kδ (PI3Kd) (Homo sapiens (Human), UniProt O00329)", "pIC50": 8.40}

// next item, pIC50 requested
Q: Suppose we examine the compound C[C@H](Nc1ncnc2[nH]cc(-c3cc(NS(C)(=O)=O)cc4[nH]ccc34)c12)c1nn2cccc2c(=O)n1-c1ccccc1 ; what pIC50 value has been reported?
A: 8.30

###

Collected pIC50 values appear next to each entry.
- targetSystem: PI3Kδ (PI3Kd) (Homo sapiens (Human))
- experimentNotes: PI3K HTRF enzymatic inhibition assay (cell-free), delta isoform
- condition: read-out: IC50 PI3Kd HTRF; recombinant PI3K delta, [ATP] 15 μM, [PIP2] 2 μM, 30 min preincubation
FYI, pIC50 means -log10 of a concentration in mol per litre.

Q: Would you kindly share the measured pIC50 for N#Cc1c(N)ncnc1N[C@@H](CCOc1ccccc1)c1nn2cccc2c(=O)n1-c1ccccc1 [Example 20] ?
A: 9.00

Q: May I ask what pIC50 has been recorded for Cc1ccn2nc([C@H](C)Nc3ncnc(N)c3-c3cc(O)cc(NS(=O)(=O)c4ccc(F)cc4F)c3)n(-c3ccccc3)c(=O)c12 [Example 130] ?
A: 9.00

Q: Could you share which pIC50 value was measured for C[C@H](Nc1ncnc2[nH]cc(-c3cc(NS(C)(=O)=O)cc(OS(C)(=O)=O)c3)c12)c1nn2cccc2c(=O)n1-c1ccccc1 [Example 176] ?
A: 9.00

Q: Reported pIC50 for Cc1ccn2nc([C@H](C)Nc3ncnc4[nH]cc(-c5cc(O)cc(NS(=O)(=O)c6ccc(O)cc6)c5)c34)n(-c3ccccc3)c(=O)c12 [Example 125] : what is it?
A: 9.15

Q: What does the data say about its pIC50? Entry: Cc1ccn2nc([C@H](C)Nc3ncnc(N)c3-c3cnn(CCO)c3)n(-c3ccccc3)c(=O)c12 [Example 116]
A: 9.00

Q: Using the record for CCOc1ncc(-c2c(N)ncnc2N[C@@H](C)c2nn3ccc(C)c3c(=O)n2-c2ccccc2)cc1NS(=O)(=O)c1ccc(O)cc1 [Example 187] , report its pIC50.
A: 9.15
